Several publications report Ki on Tyrosine-protein phosphatase non-receptor type 2 (Homo sapiens, UniProt P17706); those values are gathered here.
Sequence (P17706 whole entry): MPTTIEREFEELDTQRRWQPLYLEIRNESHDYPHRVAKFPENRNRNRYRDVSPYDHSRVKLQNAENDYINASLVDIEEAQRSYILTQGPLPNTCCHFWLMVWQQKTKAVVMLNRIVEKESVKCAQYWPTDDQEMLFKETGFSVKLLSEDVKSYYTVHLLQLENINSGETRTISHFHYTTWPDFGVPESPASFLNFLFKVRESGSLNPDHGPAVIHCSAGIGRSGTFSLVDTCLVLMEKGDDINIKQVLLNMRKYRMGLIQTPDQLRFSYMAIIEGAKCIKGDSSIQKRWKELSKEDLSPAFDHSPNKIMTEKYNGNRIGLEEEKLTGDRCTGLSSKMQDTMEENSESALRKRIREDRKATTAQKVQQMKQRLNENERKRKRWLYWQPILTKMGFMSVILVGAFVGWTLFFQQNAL
Write the value in µM as a bare number.

Worked cases, answers included:
>>> observed("O=C(O)C(=O)Nc1ccsc1C(=O)O")
58
>>> observed("CCCC[C@H](NC(=O)CCCCNC(=O)C(Cc1ccc(N(C(=O)C(=O)O)c2ccccc2C(=O)O)c(CC)c1)NC(C)=O)C(=O)O (stereo partly drawn)")
0.24
>>> observed("O=C(O)C(=O)Nc1sccc1C(=O)O")
62
>>> observed("O=C(O)c1cc(-c2ccccc2)cc(Cc2cc(-c3ccccc3)cc(C(=O)O)c2O)c1O")
89
>>> observed("CCc1cc(CC(NC(C)=O)C(=O)NCCCCC(=O)NCCc2ccccc2)ccc1N(C(=O)C(=O)O)c1ccccc1C(=O)O (stereo not drawn)")
1.4
>>> observed("CC(=O)NC(Cc1ccc(N(C(=O)C(=O)O)c2ccccc2C(=O)O)c2ccccc12)C(=O)NCCCCCOc1cc2ccccc2cc1C(=O)O (stereo not drawn)")
0.049

Kindly consider the entry below.
Please report the measured Ki for CC(C)(C)c1ccc(CN(Cc2ccc(C(C)(C)C)cc2)S(=O)(=O)C(Cc2ccc(NC(=O)C(=O)O)cc2)c2nc3ccccc3o2)cc1 (stereo not drawn) tested on Tyrosine-protein phosphatase non-receptor type 2 (Homo sapiens, UniProt P17706).
6.4
